B1: HDV Ribozyme (parent)
chain: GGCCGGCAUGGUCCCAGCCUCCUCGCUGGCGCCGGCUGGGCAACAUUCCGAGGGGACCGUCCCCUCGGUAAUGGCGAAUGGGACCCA

# Variants of: B1
# Assay Notes: self-cleavage, relative activity (ratio to wild type); higher = more cleavage; co-transcriptional
Hi there, I'd appreciate the recorded self-cleavage for every entry that follows.
Give your answer as a number; write no unit.

// returns reported self-cleavage for input "GGCCGGCAUGGUUCCAGCCUCCUCGCUGGCGCCGGCUGGGCAACAUUCCGAGGGGACCGUCCCCUCGGUAAUGGCGAAUGGGACGCA" 0.332

Follow-up entry: "GGCCGGCAUGGUCCCAGCCUCCUCGCUGGCGCCGGCGGGGCGACAUUCCGAGGGGACCGUCCCCUCGGUAAUGGCGAAUGGGACCCA" 0.0723

Follow-up entry: "GGCCGGCAUGGUCCCAGCCUCCUCGCUGGGGCCGGCUGGGCAACAUUUCGAGGGGACCGUCCCCUCGGUAAUGGCGAAUGGGACCCA" 0.241

Follow-up entry: "GGCCGGCAUGGUCCCAGCGUCCUCGCUGGCGCCGGCUGGGCAACAUUCCGAGGGGACCGUCCCCUCGGUAGUGGCGAAUGGGACCCA" 0.158

Follow-up entry: "GGCCGGCAUGGUCCCAGCCUCCUGGCUGGCGCCGGCUGGGCAACAUUCCGAGGGGACCGUCCCCUCGGUACUGGCGAAUGGGACCCA" 0

Follow-up entry: "GGCCGGCAUGGUCCCAGCCUCCUCGCGCGCGCCGGCUGGGCAACAUUCCGAGGGGACCGUCCCCUCGGUAAUGGCGAAUGGGACCCA" 0.554

Follow-up entry: "GGCCGACAUGGUCCCAGCCUCCUCGCUGGCGCCGGCUGGGCAACAUUCCGAGGGGACCGUCCCCUCGGUAAUGGCGAAUUGGACCCA" 0.0813

Follow-up entry: "GGCCGGCAUGGUCCCAGCCUCCUCGCUGGCGCCGGCUGGGCGACAUUCCGAGGGGACCGUCCCCGCGGUAAUGGCGAAUGGGACCCA" 0.536

Follow-up entry: "GGCCGGCAUGGUCCCAGCCUCCUCGCUGGCGCCGGCUGGGCAACAUUCCGCGGGGACCGUCCCCUCGGUAUUGGCGAAUGGGACCCA" 0.892

Follow-up entry: "GGCCGGCAUGAUCCCAGCCUCCUCGCUGGCGCCGGCUGGGCAACAUUCCGAGGGGACCGUCCCCUCGGUAAUGACGAAUGGGACCCA" 0.0769

Follow-up entry: "GGCCGGCAUGGUCCCAGCCUCCUCGCUGGCGCCGGCUGGGCAACAUUCCUAGGGGACCGUCGCCUCGGUAAUGGCGAAUGGGACCCA" 0.344

Follow-up entry: "GGCCGGCAUGGUCCCAGCCUCCUCGCUGGCGCCGGCUGGGCAACAUUCCGAGGGGACCGUCCCCUCGGUAAUGCCGAAUGCGACCCA" 0.196

Follow-up entry: "GGCCGGCAUGGUCCCAGCCUCCUCGCUGGCGCCGGCUAGGCAACAUUCCGAGGGGACCGUCCCCUCGGUAAUGGCGAGUGGGACCCA" 0.0755

Follow-up entry: "GGCCGGCAUGGUCCCAGCCUCCUCGCUGGCGCCGGCAGGGCAACAUUCCGAGGGGACCGUCCCCUCGGUAACGGCGAAUGGGACCCA" 0

Follow-up entry: "GGCCGGCAAGGUCCCGGCCUCCUCGCUGGCGCCGGCUGGGCAACAUUCCGAGGGGACCGUCCCCUCGGUAAUGGCGAAUGGGACCCA" 1.37

Follow-up entry: "GGCCGGCAGGGUCCCAGCCUCCUCGCUGGCGCCGGCUGGGCAACAUUCCGAGGGGACCGUCCCCUCGGUAAUGGCGAAUGGGACGCA" 0.895

Follow-up entry: "GGCCGGCAUGGUCCCAGCCUCCUCGCUGGCGCCUGCUGGGCAACAUUCCGAGGGGACCGUCCCCUCGGGAAUGGCGAAUGGGACCCA" 0.0361

Follow-up entry: "GGCCGGCAUGGUCCAAGCCUCCUCGCUGGCGCCGGCUGGGCAACAUUCCGAGCGGACCGUCCCCUCGGUAAUGGCGAAUGGGACCCA" 0.674

Follow-up entry: "GGCCGGCACGGUCCCAGCCUCCUCGCUGGCGCCGGCUGGGCAACAUUCCCAGGGGACCGUCCCCUCGGUAAUGGCGAAUGGGACCCA" 0.886

Follow-up entry: "GGCCGGCAUGGUCCCAGCCUCCUCGCUGGCGCCGACUGGGCAACAUUCCGAGGGGACCGUCCCCUCGGUAAUGGCGUAUGGGACCCA" 0.253

Follow-up entry: "GGCCGGCAUGGUCCCAGCCUCCUCGCUGGCACCGGCUCGGCAACAUUCCGAGGGGACCGUCCCCUCGGUAAUGGCGAAUGGGACCCA" 0.142

Follow-up entry: "GGCCGGCAUGGUCACAGGCUCCUCGCUGGCGCCGGCUGGGCAACAUUCCGAGGGGACCGUCCCCUCGGUAAUGGCGAAUGGGACCCA" 0

Follow-up entry: "GCCCGGCAUGGUCCCAGCCUCCUCGCUGGCGCCGGCUGGGCAACAUUCCGAGGGGACCGUCCCCUCGGUAAAGGCGAAUGGGACCCA" 0.106

Follow-up entry: "GGCCGGCAUGGUCCCAGCCUCCUCGCUGGCGCCGGCUGGGCAACAUUGCGAGGGGACCGUCCCCUCGGUAAUGGCGAAGGGGACCCA" 0.795

Follow-up entry: "GGCCCGCAUGGUCCCAGCCUCCUCGCUGGCGCCGGCUGGGUAACAUUCCGAGGGGACCGUCCCCUCGGUAAUGGCGAAUGGGACCCA" 0.277

Follow-up entry: "GGCCGGCAUGGUCCCAGCCUCCUCGCUGGCGCCGGCUGGGCAACAUUCCGUGGGGACCGUCCCCUCGGUAAUGGCGAAUGUGACCCA" 0.282

Follow-up entry: "GGCCGGCAUGGUCCCAGCCUCCUCGCUGCCGCCGGCUGGGCAACAUUCCGAGGGGACCGUCCCCUCGGUAAUGGAGAAUGGGACCCA" 0.138

Follow-up entry: "GGCCGGCAUGGUCCCAGCCUCCUCGCUGGCGCCGGCUGGGCCACAUUCCGAGGGGACCGUCCCCUCGGUAAGGGCGAAUGGGACCCA" 0.256

Follow-up entry: "GGCCGGCAUGGUCCCAGCCUCCUCGCUGGCGCCCGCUGGGCAACAUUCCGAGGGGACCGUCCCCUAGGUAAUGGCGAAUGGGACCCA" 0.35

Follow-up entry: "GGCCGGCAUGGUCCCAGCCUCCUCGCUGGCGCCGGCUGGGCAACAUUCCGAAGGGACCGUCCCCUCGGUAAUGGCGAAUGGGACCCU" 0.897

Follow-up entry: "GGCCUGCAUGGUCCCAGCCUCCUCGCUGGCGCCGGCUGGGCAACAUUCCGAGGGGACCGUCCCCUCGAUAAUGGCGAAUGGGACCCA" 0.697

Follow-up entry: "GGCCGGCAUGGUCCCAGCCUCCUCGCUGGCGCCGGCUGGGCAGCAUUCCGAGGGGACCGUACCCUCGGUAAUGGCGAAUGGGACCCA" 0.499

Follow-up entry: "GGCGGGCAUGGUCCCAGCCUCCUCGCUGGCGCCGGCUGGGCAACAUUCCGAGGCGACCGUCCCCUCGGUAAUGGCGAAUGGGACCCA" 0.213

Follow-up entry: "GGCCGGCAUGGUCCCAGCCUCCUCGCUGGCGCCGGCUGGGCAACAUGCCGAGGGGACCGUCCCAUCGGUAAUGGCGAAUGGGACCCA" 0.875

Follow-up entry: "GUCCGGCAUGGUCCCAGCCUCCUCGCUGGCGCCGGCUGGGCAACAUUCCGAGGGCACCGUCCCCUCGGUAAUGGCGAAUGGGACCCA" 0.116

Follow-up entry: "GGCCGACAUGGUCCCAGCCUCCUCGCUGGCGGCGGCUGGGCAACAUUCCGAGGGGACCGUCCCCUCGGUAAUGGCGAAUGGGACCCA" 0.138

Follow-up entry: "GGCCCGCAUGGUCCCAGCCUCCUCGCUGGCGCCGGCUGGGCAACAUUCCGAGGGGACCGUCCCCUCGGUAAUGGCGGAUGGGACCCA" 0.0475

Follow-up entry: "GGCCGGCAUGGUCCCAGCCUCCUCGCUGGCGCCGGCUGAGCAACAUUCCGAGGGGACCGUCCCCUCGGUAAUGGCGAAUGGGGCCCA" 0.507

Follow-up entry: "GGCCGGCAUGGCCCCAGCCUCCUCGCUGGCGCCGGCUGGGCAACAUUCCGAGGGGGCCGUCCCCUCGGUAAUGGCGAAUGGGACCCA" 0.623

Follow-up entry: "GGCCGGCAUGGUCCCAGCCACCUCGCUGGCGCCGGCUGGGCAACAUUCCGAGGGGACCGUCCUCUCGGUAAUGGCGAAUGGGACCCA" 0.101

Follow-up entry: "GGCCGGCAUGGUCCCAGCCUCCUCGCUGGCGCCGGCUGGGCAACAUUCCGAGGGGACCGACCUCUCGGUAAUGGCGAAUGGGACCCA" 0.972

Follow-up entry: "GGCCGGCAUGGUCCCAUCCUCCUCGCUGGCGCCGGCUGGGCAACAUUCCGAGGGGACCGUCCCCUCGGUAAUGGCGAAUGGAACCCA" 0.543

Follow-up entry: "GGCCGGCAUGGUCCCAGCCUCCUCGCUGGCGCCGGCUGGGCAACAUUCCGAGGGGACCGUACCCUCGGUAAUGGCGAAUUGGACCCA" 0.203

Follow-up entry: "GGCCGGCAUGGUCCCAGCCUCCUCGCUGGAGCCAGCUGGGCAACAUUCCGAGGGGACCGUCCCCUCGGUAAUGGCGAAUGGGACCCA" 0.0801

Follow-up entry: "GGCCGGCAUGGUCCCAGCCUCCUCGCUGGCGCCGGCUGGGCAAGAUUCCGAGGGGACCGUCCCCUCGGUAAUGGCGAAUGGGACACA" 0.525

Follow-up entry: "GGCCGGCAUGGUCCCAGCCUCCUCGCUGGCGCCGGCUGGGCAACAUUCCGAGGGGACCUUCCCCUCGGUAAUGGCGAUUGGGACCCA" 0.285
